# System: SK-MEL-28 melanoma
# test_name: NCI-60 one-dose screen, 48 h
# test_parameters: 10 µM unless noted
The panel holds about 83,000 compounds, 20% with a hit somewhere; the sample as a whole holds those more often. Active and inactive are the calls of the source. Rule for the calls: active = growth percent below 10; inactive = the rest.
Could you please pick one outcome from this set? active, inactive

Here's what some known entries look like.
compound	tested_target	class_assignment
O=C(/C=C/c1ccc[nH]1)c1ccc(-n2ccc(C(F)(F)F)n2)c(F)c1	SK-MEL-28 melanoma	inactive
O=C(Cc1ccc(/C=C/C(=O)c2nccs2)cc1)Nc1ccccc1	SK-MEL-28 melanoma	inactive
CN(C)c1ccc(C2C(C#N)=C(/N=C/c3ccccc3)Oc3c2ccc2ccccc32)cc1 (stereo not given)	SK-MEL-28 melanoma	inactive
C[C@@H](Nc1ncnc2ccc(-c3cnc(N)nc3)cc12)c1ccc(F)cc1	SK-MEL-28 melanoma	inactive

Q) What was the test verdict on CC(C)(C)[Si](C)(C)OC1[C@@H](O[Si](C)(C)C(C)(C)C)[C@@H](CNC(=O)NC(=O)CCl)O[C@H]1n1cnc2c(NC(=O)Nc3ccccc3)ncnc21 (stereo not given in full) ?
A) active
